Please respond with reported pKi for every item in the list.
Target: BCL2 F104I (Homo sapiens, UniProt P10415, F104I)
Assay: TR-FRET competitive binding assay, BCL2 F104I
Settings: Ki determined from IC50, read-out: TR_FRET EKI_Bcl2 F104I
Protocol: The relative binding potency of each compound was determined in a competitive binding assay using time resolved-fluorescence resonance energy transfer (TR-FRET). […] The degree of binding or corresponding compound inhibition can be quantified by the TR-FRET signal between the terbium donor and fluorescein acceptor. […] TR-FRET measurements were performed on a Biotek Synergy Neo plate reader. […] The TR-FRET signal was calculated as the emission-ratio at 520 nm over 495 nm. […]
One number for each entry, as −log10 of the molar value.

Form field: reported pKi of COc1ccc(N(C(=O)c2cc(-c3cc4c(cc3C(=O)N3Cc5ccccc5C[C@H]3C)CN(C(=O)Cc3ccc(OCCN5CCOCC5)cc3)CC4)n(C)c2C)c2ccc(O)cc2)cc1C#N [Example 81] 9.28

// same read-out, input: Cc1c(N(C(=O)c2cc(-c3cc4c(cc3C(=O)N3Cc5ccccc5C[C@H]3C)CN(C(=O)Cc3ccc(CCN5CCC(F)(F)CC5)cc3)CC4)n(C)c2C)c2ccc(O)cc2)cc(C#N)n1C [Example 51] 8.31

// same read-out, input: Cc1c(N(C(=O)c2cc(-c3cc4c(cc3C(=O)N3Cc5ccccc5C[C@H]3C)CN(C(=O)Cc3ccc(OCCN5CCC(O)CC5)cc3)CC4)n(C)c2C)c2ccc(O)cc2)cc(C#N)n1C [Example 30] 9.59

// same read-out, input: Cc1c(N(C(=O)c2cc(-c3cc4c(cc3C(=O)N3Cc5ccccc5C[C@H]3CN3CCC(F)CC3)CN(C(=O)Cc3ccc(OCCN5CCOCC5)cc3F)CC4)n(C)c2C)c2ccc(O)cc2)cc(C#N)n1C [Example 86] 9.43

***
Form field: reported pKi of Cc1c(N(C(=O)c2cc(-c3cc4c(cc3C(=O)N3Cc5ccccc5C[C@H]3CN3CCCCC3)CN(C(=O)Cc3ccc(OCCN5CCOCC5)cc3)CC4)n(C)c2C)c2ccc(O)cc2)cc(C#N)n1C [Example 67] 9.64

----------
Please respond with reported TR_FRET EKI G101V/WT selectivty ratio for every item in the list.
Tested on: BCL2 G101V
Assay: TR-FRET competitive binding assay, BCL2 G101V
Design: species or system human
Conditions: ratio Ki BCL2 G101V / Ki BCL2 WT

# count of solved cases: 2
Form field: reported TR_FRET EKI G101V/WT selectivty ratio of Cc1c(N(C(=O)c2cc(-c3cc4c(cc3C(=O)N3Cc5ccccc5C[C@H]3CN3CCCCC3)CN(C(=O)Cc3cc(F)c(OCCN5CCOCC5)cc3F)CC4)n(C)c2C)c2ccc(O)cc2)cc(C#N)n1C [Example 83] 10.9

// same read-out, input: Cc1nn(C)cc1N(C(=O)c1cc(-c2cc3c(cc2C(=O)N2Cc4ccccc4C[C@H]2C)CN(C(=O)Cc2ccc(OCCN(C)C)cc2F)CC3)n(C)c1C)c1ccccc1 [Example 222] 69.6

Switching to the query record.
Form field: reported TR_FRET EKI G101V/WT selectivty ratio of Cc1c(C(=O)N(c2ccccc2)c2cnn(C)c2)cc(-c2cc3c(cc2C(=O)N2Cc4ccccc4C[C@H]2C)CN(C(=O)Cc2ccc(OCCN(C)C)cc2)CC3)n1C [Example 208] 83.8
